The measurements presented in this section are drawn from patent US20210095032A1.

# tgt: T1, biotin-labeled human PD-1 Fc protein (human, biotin-labeled (site not stated))
# T1 construct: also called PD-1-Fc-biotin
# measurement.description: competition ELISA, antibody + biotin human PD-1 Fc on coated Nivolumab (competitor Nivolumab)
Property: pIC50; scope: individual binders
Remember, pIC50 is on a log scale: it is -log10 of the molar concentration.

Example entries begin here.
{"columns": ["binder", "pIC50"],
 "data": [
  ["chimeric D2H3 antibody (antibody, human IgG1, kappa, V domains shown, Mouse variable domains cloned in frame to human IgG1 and kappa constant regions; also called chD2H3) VH: EVQLQQSGTVLARPGASVKMSCKSSGYTFTNYWMHWVKQRPGQGLEWIGAIFPRNSETNYNQKFKAKAKLTAVTSASTAYMEVSSLTSEDSAVYFCTRNRYGLDYWGQGTSVTVSS VL: DIVLTQSPGFLAVSLGQRATISCRASESVSLHGTRLMHWYHQKPGQPPKLLISLGSNLESGVPARFSGSGSETDFTLNIHPVEEEDAATYFCQQSIEDPWTFGGGTKLEIKR", 9.72],
  ["chimeric D2A4 antibody (antibody, human IgG1, kappa, V domains shown, Mouse variable domains cloned in frame to human IgG1 and kappa constant regions; also called chD2A4; ChD2A4) VH: EVKLVESGGGLVKPGGSLKLSCAASGFTFSSYTMSWVRQTPAKRLEWVATISGGGSNTYYPDSVKGRFTISRDNARNTLYLQMSSLRSEDTAMYYCARQAFYSNYWYFDVWGAGTTVTVSS VL: DIQMTQSPASQSASLGESVTITCLASQTIGTWLAWYQQTPGKSPQLLIYAATSLADGVPSRFSGSGSGTKFSFKISSLQAEDFASYYCQQVSSIPWTFGGGTKLEIRR", 9.46]
]}

Task item: So what's the measured pIC50 for this one? mouse anti-PD-1 monoclonal antibody D2A4 (antibody, V domains shown, Mouse antibody purified from a hybridoma; also called Mouse D2A4; mouse D2A4) VH: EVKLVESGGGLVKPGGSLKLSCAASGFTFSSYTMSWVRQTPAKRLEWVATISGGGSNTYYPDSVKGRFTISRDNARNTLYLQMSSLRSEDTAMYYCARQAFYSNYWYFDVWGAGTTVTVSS VL: DIQMTQSPASQSASLGESVTITCLASQTIGTWLAWYQQTPGKSPQLLIYAATSLADGVPSRFSGSGSGTKFSFKISSLQAEDFASYYCQQVSSIPWTFGGGTKLEIR
Reply: 9.48
